B1: tRNA (parent)
chain: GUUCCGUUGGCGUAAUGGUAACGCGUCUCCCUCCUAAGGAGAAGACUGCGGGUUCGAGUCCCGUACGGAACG

Variants of: B1
assay_procedure: yeast fitness relative to wild type (ratio to wild type); higher = fitter; tRNA-Arg(CCU), competitive growth, 37 C, YPD
This sample holds only a part of the variants without activity.
Would you mind telling me the reported yeast fitness of each entry?
Answers are plain numbers.

> print(dat)
   mutation.annotation  reported.endpoint  data.value
1       C11U G50C C61U      yeast fitness       0.581
2  C24U C31A U54C A57U      yeast fitness       0.547

Please state yeast fitness for every variant in the list that follows.
1. G10A U32A C49U
2. C24U C33A G44C U47C

Result:
0.577
0.674

Please state yeast fitness for every variant in the list that follows.
1. C27G U54C A69G
2. A42G A43G C46G G56C
3. A40U A43C U59C

Result:
1: 0.625; 2: 0.57; 3: 0.752

Please state yeast fitness for every variant in the list that follows.
1. U3A U53C
2. G39A A70G
3. G56A A70C

Result:
0.668
0.871
1.06

Please state yeast fitness for every variant in the list that follows.
1. C46A G63C
2. U2C C29U A37G C66U

Result:
1. 0.995
2. 0.578
